- experiment.summary: LAP4-GFP expression modulators in yeast, confirmation, cell-based, cherry picks, flow cytometry, mother/daughter gates (AID 2271)
- condition.context: S. cerevisiae LAP4-GFP strain, 3 h, measured here: mother cell gate response, at 10 µM, stronger effect = higher value, 100 means same as DMSO control
Each entry gets F if its GFP response relative to DMSO stays under 200%, and T if its GFP response relative to DMSO is 200% or above.

Given the entry Cc1ccc(C2=NN(S(C)(=O)=O)C(c3ccc4c(c3)OCO4)C2)cc1 (stereo unspecified) , answer whether its GFP response relative to DMSO meets or surpasses 200%. F

Given the entry "O=C(O)c1ccn2c(C(=O)c3ccccc3)c(-c3ccccc3)cc2c1" , answer whether its GFP response relative to DMSO meets or surpasses 200%. F

Given the entry "Cc1ccc(/C=C2/C(=O)ON=C2c2ccccc2)o1" , answer whether its GFP response relative to DMSO meets or surpasses 200%. T

***
Given the entry "Cc1[nH][nH]c(=O)c1C(c1ccc(N(C)C)c(Br)c1)c1c(C)[nH][nH]c1=O" , answer whether its GFP response relative to DMSO meets or surpasses 200%. F

Given the entry "O=C(c1ccccn1)c1conc1C(=O)c1ccc(Br)cc1" , answer whether its GFP response relative to DMSO meets or surpasses 200%. T

Given the entry "O=c1[nH]c(-c2ccccn2)nc(C(F)(F)F)c1Br" , answer whether its GFP response relative to DMSO meets or surpasses 200%. T

Data provenance: PubChem BioAssay
